Target: human ERK-2 (Mitogen Activated Kinase 1) (Homo sapiens (Human))
Sequence (P28482 8-360): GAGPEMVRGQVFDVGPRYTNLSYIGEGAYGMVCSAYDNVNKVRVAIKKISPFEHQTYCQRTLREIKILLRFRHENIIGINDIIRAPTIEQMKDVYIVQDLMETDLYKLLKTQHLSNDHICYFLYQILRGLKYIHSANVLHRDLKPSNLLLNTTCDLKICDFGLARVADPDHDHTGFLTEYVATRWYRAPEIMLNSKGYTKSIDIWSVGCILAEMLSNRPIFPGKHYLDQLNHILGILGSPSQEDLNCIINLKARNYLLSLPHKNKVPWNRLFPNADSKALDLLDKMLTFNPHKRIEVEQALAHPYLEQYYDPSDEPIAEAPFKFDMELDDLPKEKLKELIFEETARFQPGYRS
Experiment: ERK-2 Enzymatic Assay
Conditions: human ERK-2 enzyme 5 nM, 25 μM ATP, S/T17 peptide substrate; isomer = configuration of CR2R3
Reported metric: IC50 (nM)
Please state the figure in nM; there is no need to write the unit.

Recall and state the measured IC50 for Cc1cc(C[C@@H]2CCOc3cc(-c4ccnc(Nc5ccnn5C)n4)cc4nnc2n34)on1 [(S) I-93] .
18.2

Answer with the recorded IC50 of Cn1nccc1Nc1nccc(-c2cc3n4c(nnc4c2)[C@H](Cc2ccccc2)CO3)n1 [(S) I-15] only.
2.24

Note down IC50 recorded for Cn1nccc1Nc1nccc(-c2cc3n4c(nnc4c2)[C@H](Cn2cc(C4CC4)cn2)CCO3)n1 [(S) I-56]
1.39

Read off the recorded IC50 for Cn1nccc1Nc1nccc(-c2cc3n4c(nnc4c2)[C@@H](c2ccccc2)CN3)n1 [(S) I-1]
1.1

Specify measured IC50 for CCCC1COc2cc(-c3ccnc(Nc4ccnn4C)n3)cc3nnc1n23 (single isomer, unassigned) [(R) I-101] .
0.038

Return value of IC50 for input Cn1nccc1Nc1cc(-c2cc3n4c(nnc4c2)[C@H](Oc2cncc(Cl)c2)CCO3)ccn1 [(R) I-78] , no commentary.
4.61

// fetch IC50 given entry CC(C)[C@H]1CNc2cc(-c3ccnc(Nc4ccnn4C)n3)cc3nnc1n23
0.039

Find the measured IC50 of COc1ccc(C[C@H]2NC(=O)N(C)c3cc(-c4ccnc(Nc5ccnn5C)c4)cc4nnc2n34)cc1 and report it.
0.39

Answer with reported IC50 of Cn1nccc1Nc1nccc(-c2cc3n4c(nnc4c2)[C@H](Oc2ccc(F)c(F)c2)CCO3)n1 [(R) I-111]
2.6

###

Biological target: human ERK-2 (Mitogen Activated Kinase 1) (Homo sapiens (Human))
Assay: ERK-2 Enzymatic Assay
Details: human ERK-2 enzyme 5 nM, 25 μM ATP, S/T17 peptide substrate; isomer = configuration of CR2R3
Binning rule for recorded IC50: bottom bin (below 0.7 nM), middle bin (0.7 nM to below 3 nM), top bin (3 nM or more)

Reference set (3 entries):
>>> assigned_label("Cn1nccc1Nc1nccc(-c2cc3n4c(nnc4c2)[C@H](CCC(F)(F)F)CCO3)n1 [(R) I-102]")
"middle bin"
>>> assigned_label("CC(C)C[C@H]1CCOc2cc(-c3ccnc(Nc4ccnn4C)n3)cc3nnc1n23 [(S) I-107]")
"bottom bin"
>>> assigned_label("Cc1cc(C[C@H]2CCOc3cc(-c4ccnc(Nc5ccnn5C)n4)cc4nnc2n34)on1 [(R) I-93]")
"bottom bin"

Would you mind sorting Cn1nccc1Nc1nccc(-c2cc3n4c(nnc4c2)[C@H](Oc2cncc(Cl)c2)CCO3)n1 [(R) I-77] into the appropriate category?
bottom bin

Assign a category based on measured IC50 for CC(C)C[C@@H]1CN(C)c2cc(-c3ccnc(Nc4ccnn4C)c3)cc3nnc1n23 [(R) I-20] and give only the class name.
top bin

In plain terms, what class is COc1ccc(C[C@@H]2COc3cc(-c4ccnc(Nc5ccnn5C)n4)cc4nnc2n34)cc1 [(S) I-50] ?
top bin

Record Cn1nccc1Nc1cc(-c2cc3n4c(nnc4c2)C(Cc2cccc(Cl)c2)CO3)ccn1 (stereo not shown) — which class?
bottom bin

Exam item: assign CN1C(=O)N[C@H](Cc2ccc(Cl)cc2)c2nnc3cc(-c4ccnc(Nc5ccnn5C)n4)cc1n23 to the correct category.
bottom bin
